Assay: NCI Yeast Anticancer Drug Screen. Data for the rad52 strain (AID 147);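 note: 0% = growth of vehicle-treated control cultures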
Conditions: S. cerevisiae rad52 mutant growth inhibition; at 11.0 µM; hits give high values
The panel holds about 79,000 compounds, 15% with a hit somewhere; the sample as a whole holds those more often.
Observed property: growth inhibition (%)

# Compound, Measured
records = [
    ("CN1CCN(C(=O)/C=C/C(=O)c2ccccc2)CC1", 24),
    ("Cc1ccccc1N=Cc1cc(Cl)ccc1O", 4),
    ("CCOc1ccc(NC(=O)C2=C(C)NC(C)=C(C(=O)Nc3ccc(OCC)cc3)C2c2cccc([N+](=O)[O-])c2)cc1", 5),
    ("Cc1nc(Nc2ccccc2[N+](=O)[O-])sc1C(=O)CC(=O)C(=O)Nc1c(C(C)C)cccc1C(C)C", -1),
    ("CCOC(=O)C1=C(C)NC(C)=C(C(=O)OCCNC(=O)c2ccc(N=[N+]=[N-])cc2)C1c1ccccc1C(F)(F)F (stereo not drawn)", 13),
    ("CSc1nc(C)c(CCOC(C)=O)c(N=P(c2ccccc2)(c2ccccc2)c2ccccc2)n1", -3),
    ("Nc1cc(N)c(N=Nc2cccc3c(S(=O)(=O)O)cccc23)cc1N=Nc1cc([N+](=O)[O-])ccc1O", 17),
    ("COC1=C(N)C(=O)c2nc(-c3nc(C(=O)O)c(C)c(-c4ccc(OC)c(OC)c4O)c3N)ccc2C1=O", 98),
    ("CCN(CC)CCNc1ccc([N+](=O)[O-])c2nc3ccccc3c(N)c12", 10),
    ("Clc1ccc(NCNC2Nc3ccccc3N2)cc1Cl", 18),
    ("O=C(O)C1CC(c2ccccc2)=NN1c1ccccc1 (stereo not drawn)", 4),
    ("CCCOC(=O)C(F)C(Br)C(=O)OCCC (stereo not drawn)", 96),
    ("CCCCCCCCCCCC(O)S(=O)(=O)O (stereo not drawn)", -3),
    ("Cc1ccc(NC(c2ccccc2)c2ccc3cccnc3c2O)cc1 (stereo not drawn)", -1),
    ("Cc1ccc(NCCNCCO)c2c(=O)c3cc(O)ccc3sc12", 30),
    ("CC[N+](CC)(CC)c1ccccc1", 0),
    ("COC(=O)/C=C(/C(=O)OC)C(Cl)(Cl)Cl", 47),
    ("CCCC/C=C/C(C)(C(=O)OCC)C(=O)OCC", -1),
    ("O=C(/C=C/c1cc(Cl)cc(Cl)c1O)c1cccc(O)c1", 80),
    ("O=C1CSC(c2cccc(Cl)c2)N1c1ccc(-c2ccc(-n3c(-c4ccccc4)nc4ccccc4c3=O)cc2)cc1 (stereo not drawn)", 8),
    ("Cc1nc2ccccc2nc1NNc1ccccc1", -4),
    ("COC(=O)CC1(O)C(/C=C/c2ccccc2)C(C(=O)OC)C(=O)C(C(=O)OC)C1C(=O)OC (stereo not drawn)", 1),
    ("C=C(Cl)COC(=O)Nc1cccc(Cl)c1", 30),
    ("CCN(CC)CCNc1ccc2ncn3c4cc(OC)c(OC)c(=O)c4c(O)c1c23", 40),
    ("CN(C)c1ccc(N=Nc2ccncc2)cc1", 15),
    ("C[C@@](O)(/C=C/[C@H]1CC=CC(=O)O1)[C@@H](C[C@@H](O)\\C=C/C=C\\C=C\\CO)OP(=O)(O)O", 37),
    ("O=C1c2cccnc2C(=O)C2C3C=CC(C3)C12 (stereo not drawn)", 78),
    ("COc1cc(CSc2ccc(O)cc2)cc(O)c1O", 5),
    ("C=C1CC(CCCl)(c2ccccc2)OC1=O (stereo not drawn)", 17),
    ("CCc1c[n+]([O-])c(C)cc1[N+](=O)[O-]", 21),
    ("O=[N+]([O-])c1cc(Cl)cnc1Br", 75),
    ("CN(C)CCNC(=O)c1cccc2c1Oc1c(cccc1[N+](=O)[O-])O2", -12),
    ("CCCCCCCCCCCCCCCCOP(=O)(O)OCC(N)C(=O)O (stereo not drawn)", 54),
    ("OC(/C=C/c1ccccc1)(Cc1cc(-c2ccccc2)n[nH]1)c1ccccc1 (stereo not drawn)", 11),
    ("COc1ccc([N+](=O)[O-])c2c(NCCCN(C)C)c3ccccc3nc12", 58),
    ("COc1cc(/C=N/Nc2nnc3c4ccccc4c4ncccc4c3n2)cc(OC)c1OC", 81),
    ("Cc1c2cccc(Sc3ccccc3)c2c2c3c(cccc13)[S+](c1ccccc1)C2 (stereo not drawn)", 96),
    ("O=C(/C=C\\c1cccc(C(F)(F)F)c1)c1ccccc1", -1),
    ("Cc1ccc(Sc2ccccc2N)cc1", -13),
    ("O=[N+]([O-])c1cccc2nc3ccccc3c(NCCCn3ccnc3[N+](=O)[O-])c12", 86),
    ("COc1ccc(/C=C/C(=O)c2ccccc2)cc1OC", -30),
    ("Cc1ccc(CC2(OCCN(C)C)CCC(C(C)(C)C)CC2)cc1 (stereo not drawn)", 8),
    ("CC1OC(O[C@H]2/C=C/C=C/C=C/C=C/C=C/C=C/C=C/[C@H](C)[C@@H](O)[C@@H](C)[C@H](C)OC(=O)C[C@H](O)C[C@H](O)CC[C@@H](O)[C@H](O)C[C@H](O)C[C@]3(O)C[C@H](O)[C@@H](C(=O)O)[C@H](C2)O3)C(O)C(N)C1O (stereo partly drawn)", 98),
]

The values you see were collected from PubChem BioAssay (NCI).
